# Test system: Vero E6 infected with SARS-CoV-2
# protocol_text: morphology score (similarity to uninfected cells); higher = more like uninfected cells
# condition_info: 24 h

| molecule | morphology score |
| --- | --- |
| COc1cc2c(cc1F)C(c1ccccc1Cl)=Nc1c(n[nH]c1C)N2 (10 µM) | -0.191 |
| O=C(Nc1ccccc1-c1cn2c(CN3CCNCC3)csc2n1)c1cnc2ccccc2n1 (0.833333 µM) | 0.075 |
| CC1=C(CC(=O)O)c2cc(F)ccc2/C1=C\c1ccc([S+](C)[O-])cc1 (centres undefined) [sulindac] (10 µM) | 0.0804 |
| CC(C)OC(=O)C(C)(C)Oc1ccc(C(=O)c2ccc(Cl)cc2)cc1 [fenofibrate] (10 µM) | 0.0415 |
| N#CC(C#N)=Cc1ccc(O)c(O)c1 [tyrphostin-AG-18] (10 µM) | 0.204 |
| Cc1c(N)cccc1Cn1ccc(OCCc2cccs2)cc1=O (10 µM) | 0.0738 |
| C[C@H](CCC(=O)O)[C@H]1CC[C@H]2[C@@H]3CC[C@@H]4C[C@H](O)CC[C@]4(C)[C@H]3CC[C@]12C [lithocholic-acid] (10 µM) | 0.0318 |
| Oc1cc(O)c2cc(O)c(-c3cc(O)c(O)c(O)c3)[o+]c2c1 [delphinidin] (10 µM) | 0.115 |
| N#CCC(=O)c1ccccc1 (10 µM) | 0.0172 |

###

# System: Vero E6 infected with SARS-CoV-2
# protocol_text: inhibition of SARS-CoV-2 cytopathic effect; higher = more antiviral protection, active = above 15
# condition_info: 833.33 nM; 48 h
metric: inhibition of SARS-CoV-2 cytopathic effect

| compound | result |
| --- | --- |
| O=C1c2c(O)cc(O)cc2O[C@H](c2cc(O)c(O)c(O)c2)[C@H]1O [dihydromyricetin] | 1.69% (inactive) |
| CCCCCCCCCCC(CO)CCCCCCCC (centres undefined) [2-octyldodecan-1-ol] | 0.76% (inactive) |
| Cc1csc(NC(=O)CSc2ccc(-c3ccccc3)nn2)n1 | -1.48% (inactive) |
| C[C@](N)(Cc1ccc(O)cc1)C(=O)O [metirosine] | 2.34% (inactive) |
| COc1c(N2CCNC(C)C2)c(F)cc2c(=O)c(C(=O)O)cn(C3CC3)c12 (centres undefined) [gatifloxacin] | 0.37% (inactive) |
| CN1CCN(CCCN2c3ccccc3Sc3ccc(S(=O)(=O)N(C)C)cc32)CC1 [thioproperazine] | 0.03% (inactive) |
| N[C@@H]1CCN(c2cccnc2)C1 | 2.41% (inactive) |
| CCc1ccc(C(=O)C(C)CN2CCCCC2)cc1 (centres undefined) [eperisone] | 4.7% (inactive) |
| O=c1[nH]c(=O)c2ccccc2o1 [carsalam] | 0.99% (inactive) |
| COc1ccc(C2(O)CCC(N3CC[C@@H](NC(=O)CNC(=O)c4cccc(C(F)(F)F)c4)C3)CC2)cn1 (some centres undefined) | -1.1% (inactive) |
| CCCCCCCCCC(=O)OCCN1CCN(CCCN2c3ccccc3Sc3ccc(C(F)(F)F)cc32)CC1 [fluphenazine-decanoate] | -10.3% (inactive) |
| Cc1cc(C(=CNc2ccc(Cl)cc2)C(=O)Nc2ccc(Cl)cc2)on1 | -0.86% (inactive) |
| NC(=O)N/N=C/c1ccc([N+](=O)[O-])o1 [nitrofurazone] | -0.04% (inactive) |
| CC1(C)CC[C@]2(C(=O)O)CC[C@]3(C)C(=CC[C@@H]4[C@@]5(C)CC[C@H](O)C(C)(C)[C@@H]5CC[C@]43C)[C@@H]2C1 [oleanolic-acid] | -0.94% (inactive) |
| CC[C@]12CCCN3CCc4c(n(c5ccccc45)[C@@](O)(C(=O)OC)C1)[C@@H]32 [vincamine] | -2.3% (inactive) |
| CC(C)N(CCNC(=O)CN1CCCC1=O)C(C)C [pramiracetam] | 3.04% (inactive) |
| Cc1cn2nc([C@@H]3CCCCN3C(=O)c3cc(Cl)ccc3NS(C)(=O)=O)cc2nc1N1CC[C@H](N)C1 [presatovir] | -1.96% (inactive) |
| Cc1cc(SCc2sc(-c3ccc(C(F)(F)F)cc3)nc2C)ccc1OCC(=O)O | 1.79% (inactive) |
| CC(=O)Nc1c(I)cc(I)c(C(=O)O)c1I [acetriazoic-acid] | 0.14% (inactive) |
